Each recorded value in this set is attributed to the supplement of paper PMC10567573.

B1: STX11 (parent)
chain: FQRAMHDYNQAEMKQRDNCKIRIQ

variants of: B1; experiment: protein stability index of a GFP-peptide fusion (GPS, HEK-293T) (PSI 1-6); higher = more stable; settings: c terminus: a fixed tail appended;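 also: lentivirally expressed fusions sorted by FACS into six bins by GFP to DsRed ratio, PSI derived from sequencing read proportions per bin multiplied by bin number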
Label TRUE when protein stability index is at or above 2; anything below gets FALSE.

Some solved cases for reference:
Prompt: Is the recorded value of protein stability index equal to or greater than 2 for this variant? FQRAMHMYNQAEMKQRDNCKIRIQ [D7M]
Completion: TRUE

Prompt: Is the recorded value of protein stability index equal to or greater than 2 for this variant? FQRAMHDYNQATMKQRDNCKIRIQ [E12T]
Completion: TRUE

Prompt: Is the recorded value of protein stability index equal to or greater than 2 for this variant? FQRAMHDYNQAEWKQRDNCKIRIQ [M13W]
Completion: TRUE

Prompt: Is the recorded value of protein stability index equal to or greater than 2 for this variant? FQRAMHDYNQAEHKQRDNCKIRIQ [M13H]
Completion: TRUE

Prompt: Is the recorded value of protein stability index equal to or greater than 2 for this variant? FQRAMHDYNQAEMKQQDNCKIRIQ [R16Q]
Completion: TRUE

Prompt: Is the recorded value of protein stability index equal to or greater than 2 for this variant? FQRAMHDYNQAEMKQRDNCKIRIP [Q24P]
Completion: TRUE

Prompt: Is the recorded value of protein stability index equal to or greater than 2 for this variant? FQRAMHDYNQAEMKCRDNCKIRIQ [Q15C]
Completion: TRUE

Prompt: Is the recorded value of protein stability index equal to or greater than 2 for this variant? FQRAMSDYNQAEMKQRDNCKIRIQ [H6S]
Completion: FALSE

Continuing:
Prompt: Is the recorded value of protein stability index equal to or greater than 2 for this variant? FQYAMHDYNQAEMKQRDNCKIRIQ [R3Y]
Completion: TRUE

Prompt: Is the recorded value of protein stability index equal to or greater than 2 for this variant? FQRAMHDYNQAEMKQRDNCEIRIQ [K20E]
Completion: TRUE

Prompt: Is the recorded value of protein stability index equal to or greater than 2 for this variant? FQRAMHDYNQAEMKQLDNCKIRIQ [R16L]
Completion: TRUE

Prompt: Is the recorded value of protein stability index equal to or greater than 2 for this variant? FQRAMHDYNQANMKQRDNCKIRIQ [E12N]
Completion: TRUE

Prompt: Is the recorded value of protein stability index equal to or greater than 2 for this variant? FQRAMHDYNQAEMKQRDPCKIRIQ [N18P]
Completion: TRUE
